- target_entity: rat histamine H3 receptor (Rattus norvegicus)
- Construct: encoding the entire 445-amino-acid rat histamine H3 receptor; expressed in transfected cells
- Sequence (Q9QYN8 whole entry): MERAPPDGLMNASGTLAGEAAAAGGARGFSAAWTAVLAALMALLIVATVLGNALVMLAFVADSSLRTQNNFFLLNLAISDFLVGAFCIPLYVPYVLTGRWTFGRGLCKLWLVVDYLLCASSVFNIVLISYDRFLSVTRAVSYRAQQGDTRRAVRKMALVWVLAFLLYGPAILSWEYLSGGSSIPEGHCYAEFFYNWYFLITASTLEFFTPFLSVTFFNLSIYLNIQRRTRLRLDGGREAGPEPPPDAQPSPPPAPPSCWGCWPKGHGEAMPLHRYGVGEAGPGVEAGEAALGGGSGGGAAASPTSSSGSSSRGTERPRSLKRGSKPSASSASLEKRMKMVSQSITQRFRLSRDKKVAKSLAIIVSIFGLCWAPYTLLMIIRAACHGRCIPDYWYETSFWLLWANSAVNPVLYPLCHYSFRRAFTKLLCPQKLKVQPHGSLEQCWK
- experimental_protocol: Rat H3 radioligand binding ([3H]-N-alpha-methylhistamine, CHO-A3 cell membranes, SPA)
- experimental_parameters: Table B, binding constant as letter class; read-out: rat H3 Ki
metric_name: Ki

Take a look at these entries with their results.
IN: Item O=C1CCC(c2ccc(O[C@@H]3CCN(C4CCCC4)C3)cc2)=NN1 [Example 162] has what recorded Ki?
OUT: > 1 µM

IN: Could you share which Ki value was measured for C[C@@H]1CCCN1CCCOc1ccc(-n2nc(-c3cccnc3)ccc2=O)cc1 [Example 204] ?
OUT: 0.0001 to 0.1 µM

IN: Fill blank: measured Ki of the compound Cc1nn(C)c(=O)cc1-c1ccc(OCCCN2CCC[C@H]2C)cc1 [Example 86] is ____.
OUT: 0.0001 to 0.1 µM

IN: # Ki lookup, item C[C@@H]1CCCN1CC(O)COc1ccc(-c2ccc(=O)[nH]n2)cc1 (some centres unmarked) [Example 256]
OUT: 0.101 to 0.5 µM

Now look at this one.
IN: Bench note: what Ki did CC1CC(=O)NN=C1c1ccc(OCCCN2CCCC2)cc1 (racemic) [Example 198] show?
OUT: 0.0001 to 0.1 µM

----------
Measured pKi by item
- target_entity: rat histamine H3 receptor (Rattus norvegicus)
- Construct: encoding the entire 445-amino-acid rat histamine H3 receptor; expressed in transfected cells
- experimental_protocol: Rat H3 radioligand binding ([3H]-N-alpha-methylhistamine, CHO-A3 cell membranes, SPA)
- experimental_parameters: Table A, binding constant as letter class; read-out: Rat H3 Ki
pKi: −log10 of the molar value.

Before answering, review these 3 worked examples.
IN: Give its pKi value. Item: "COC[C@@H]1CCCN1CCCOc1ccc(-c2nn(C(C)C)c(=O)c3ccsc23)cc1"
OUT: < 6.00

IN: Bench note: what pKi did "COC[C@H]1CCCN1CCCOc1ccc(-c2nn(C(C)C)c(=O)c3ccsc23)cc1" show?
OUT: < 6.00

IN: Please report the recorded pKi for "C[C@@H]1CCCN1CCCOc1ccc(-c2nn(C)c(=O)c3c2CCCC3)cc1" .
OUT: 7.00 to 10.00

More entries:
IN: Entry "CC(C)n1nc(-c2ccc(OCCCN3CCCCC3)cc2)c2sccc2c1=O" : reported pKi = ?
OUT: 7.00 to 10.00

IN: pKi for "Cn1nc(-c2ccc(OCC3CCN(C4CCC4)CC3)cc2)c2ccccc2c1=O" ?
OUT: 6.30 to 7.00

IN: # get_value(readout='pKi', item= "O=c1cc2c(nn1Cc1ccccc1)-c1ccc(OCCCN3CCCCC3)cc1CC2" )
OUT: 6.30 to 7.00

IN: Need pKi, item "O=c1c2ccccc2c(-c2ccc(OCCCN3CCCCC3)cc2)nn1Cc1ccc(Cl)cc1"
OUT: 7.00 to 10.00

IN: Fill blank: measured pKi of the compound "Cc1cc(-c2ccc(OCCCN3CCC[C@H]3C)cc2)nn(C)c1=O" is ____.
OUT: 7.00 to 10.00

IN: Item under review: "CC(C)n1nc(-c2ccc(OCCCN3CCC(N4CCCC4)CC3)cc2)c2sccc2c1=O" . Reported pKi?
OUT: 6.00 to 6.30

IN: So what's the measured pKi for this one? "Cn1nc(-c2ccc(OCC3CCN(C(=O)OC(C)(C)C)CC3)cc2)c2ccccc2c1=O"
OUT: < 6.00

IN: Fill in the blank: the reported pKi of "Cn1nc(-c2ccc(OCC3CCNCC3)cc2)c2ccccc2c1=O" is ____.
OUT: < 6.00

IN: I would be grateful if you could share the reported pKi for "CCCn1nc(-c2ccc(OCCCN3CCC[C@H]3C)cc2)c2sccc2c1=O" .
OUT: 7.00 to 10.00

IN: Entry under review: "C[C@@H]1CCCN1CCCOc1ccc(C2=NN(Cc3ccc(Cl)cc3Cl)C(=O)CC2)cc1" . Reported pKi?
OUT: 7.00 to 10.00

IN: Query (compound): "C[C@H](COc1ccc(-c2ccc(=O)n(C)n2)cc1)CN1CCC[C@H]1C" ; field requested: pKi
OUT: 7.00 to 10.00

IN: # lookup: pKi of "Cn1nc(-c2ccc(OCC3CCN(C4CCC4)CC3)cc2)ccc1=O"
OUT: < 6.00

----------
Examples of compounds with documented melting point follow.
Structures can show the parent of a compound that is named as a salt.

IN: What does the data say about its melting point? Entry: C[C@@H]1CCCN1CCCOc1ccc(-c2cnn(C)c(=O)c2)cc1 (as salt: hydrochloride)
OUT: 222 to 223 °C

IN: What value of melting point has been recorded for this entry: O=c1cc(-c2ccc(OCCCN3CCCCC3)cc2)cnn1-c1ccccn1 (as salt: HCl)
OUT: 266 to 268 °C

IN: Item under review: C[C@@H]1CCCN1CC(O)COc1ccc(-c2ccc(=O)[nH]n2)cc1 (stereo partly shown) . Reported melting point?
OUT: 153 °C

IN: Entry CN1N=C(c2ccc(OC3CCN(C4CCC4)CC3)cc2)C2CC2C1=O (stereo not shown) (as salt: HCl) has what melting point?
OUT: 243 to 245 °C

----------
Structures can show the parent of a compound that is named as a salt.
Property: melting point; scope: individual compounds

Recorded results for 2 compounds are shown here.
IN: // query melting point value for entry "N#Cc1cc(-c2ccc(=O)[nH]n2)ccc1OCCCN1CCCCC1"
OUT: 207 to 209 °C

IN: Quick one: melting point for C[C@@H]1CCCN1CCCOc1ccc(-c2ccc(=O)n(-c3ccccc3)n2)cc1 (as salt: HCl) ?
OUT: 82 to 86 °C

Please examine the following record next.
IN: Name the recorded melting point for Cc1n[nH]c(=O)cc1-c1ccc(OCCCN2CCC[C@H]2C)cc1 (as salt: hydrochloride) .
OUT: 115 °C (dec.)

----------
- target_entity: rat histamine H3 receptor (Rattus norvegicus)
- Construct: encoding the entire 445-amino-acid rat histamine H3 receptor; expressed in transfected cells
- experimental_protocol: Rat H3 radioligand binding ([3H]-N-alpha-methylhistamine, CHO-A3 cell membranes, SPA)
- experimental_parameters: Table B, binding constant as letter class; read-out: rat H3 Ki
metric_name: Ki

Consider the reported Ki for these molecules:
IN: Look up Ki for this molecule: "C[C@@H]1CCCN1CCCOc1ccc(C2=NNC(=O)CC2(C)C)cc1"
OUT: 0.1 to 100 nM

IN: Can you share its Ki? I mean this molecule: "C[C@@H]1CCCN1CCCOc1cccc(-c2nn(C)c(=O)c3c2CCC3)c1"
OUT: 501 to 1000 nM

IN: Give the measured Ki of "Cc1ccc(=O)n(-c2ccc(OCCCN3CCC[C@H]3C)cc2)n1" .
OUT: 101 to 500 nM

IN: Entry under review: "Cc1nn(-c2ccsc2)c(=O)cc1-c1ccc(OC2CCN(C3CCC3)CC2)cc1" . Reported Ki?
OUT: 0.1 to 100 nM

IN: Sample O=C1NN=C(c2ccc(OC3CCN(C4CCCC4)CC3)cc2)C2CC12 (stereo not drawn) — what was its Ki?
OUT: 0.1 to 100 nM

IN: Would you kindly share the measured Ki for "Cc1n[nH]c(=O)cc1-c1ccc(OC2CCNCC2)cc1.Cl" ?
OUT: > 1000 nM

IN: What value of measured Ki is listed for C[C@@H]1CCCN1CCCOc1ccc(C2=NNC(=O)CC2c2ccccn2)cc1 (stereo partly drawn) ?
OUT: 0.1 to 100 nM

IN: Any idea what its Ki is? The molecule is "COc1cc(-c2ccc(=O)[nH]n2)ccc1OCCCN1CCCCC1"
OUT: 101 to 500 nM

IN: So what does the record say about Ki for C[C@@H]1CCCN1CCCOc1ccc(C2=NNC(=O)C3CC23)cc1 (single isomer, unassigned) [Example 246] ?
OUT: 0.1 to 100 nM

IN: Bench note: what Ki did "C[C@@H]1CCCN1CCCOc1ccc(-c2cn[nH]c(=O)c2)cc1" show?
OUT: 0.1 to 100 nM

Next:
IN: What value of Ki has been recorded for this entry: O=C1NN=C(c2ccc(OC3CCN(C4CCC4)CC3)cc2)C2CCCC12 (stereo not drawn)
OUT: 0.1 to 100 nM

IN: Look at this molecule and give its reported Ki. CC1CC(c2ccc(OC3CCN(C4CCC4)CC3)cc2)=NNC1=O (stereo not drawn)
OUT: 0.1 to 100 nM

IN: Reported Ki, molecule "C[C@@H]1CCCN1CCCOc1ccc(-c2ccc(=O)n(CCO)n2)cc1" : ____
OUT: 0.1 to 100 nM

IN: Returns the measured Ki for the input molecule. Input: "Cc1nn(C)c(=O)cc1-c1ccc(OCCCN2CCCCC2)cc1"
OUT: 0.1 to 100 nM

IN: Which value of Ki has been reported for CC1CC(c2ccc(OCCCN3CCC[C@H]3C)cc2)=NNC1=O (stereo partly drawn) in the records?
OUT: 0.1 to 100 nM

IN: I would be grateful if you could share the reported Ki for "C[C@@H]1CCCN1CCCOc1ccc(-c2ccc(=O)[nH]n2)c(F)c1" .
OUT: 0.1 to 100 nM

IN: I have this molecule here, C[C@@H]1CCCN1CCCOc1ccc(C2=NNC(=O)C3CCCC23)cc1 (stereo partly drawn) , and I need its recorded Ki.
OUT: 0.1 to 100 nM

IN: Give its Ki value. Item: "O=C1CCC(c2cc(F)c(OC3CCN(C4CCC4)CC3)c(F)c2)=NN1"
OUT: 0.1 to 100 nM

Data origin: patent US8586588B2
